Items are presented alongside their recorded IC50.
# Test system: human PCSK9
# ASSAY PROTOCOL: Cell Free PCSK9 Assay (PCSK9-luciferase RNA translated in HeLa cell lysate)
# Type: biochemical
# MEASUREMENT CONTEXT: 30° C. for 45 minutes, luciferase readout, top concentration 100 μM
PROPERTY MEASURED: IC50 (µM)

{"COMPOUND": "COC(=O)c1c(-c2ccc(C(=O)N(c3ncccc3C)[C@@H]3CCCNC3)cc2)cnn1C", "TESTED ON": "human PCSK9", "PROPERTY MEASURED": "IC50", "ASSAY RESULT": 0.8}
{"COMPOUND": "Cc1cccnc1N(C(=O)c1ccc(-c2cnn3cccnc23)cc1)[C@@H]1CCCNC1", "TESTED ON": "human PCSK9", "PROPERTY MEASURED": "IC50", "ASSAY RESULT": 0.44}
{"COMPOUND": "CCOC(=O)OC(CC)n1nnc(-c2c(-c3ccc(C(=O)N(c4ncccc4C)[C@@H]4CCCNC4)cc3)cnn2C)n1 (single isomer, unassigned) [Example 32]", "TESTED ON": "human PCSK9", "PROPERTY MEASURED": "IC50", "ASSAY RESULT": 7.26}
{"COMPOUND": "CCOC(=O)OC(CC)n1nnc(-c2c(-c3ccc(C(=O)N(c4ncccc4C)[C@@H]4CCCNC4)cc3)cnn2C)n1 (single isomer, unassigned) [Example 33]", "TESTED ON": "human PCSK9", "PROPERTY MEASURED": "IC50", "ASSAY RESULT": 23.7}
{"COMPOUND": "CCOC(=O)OC(C(C)C)n1nnc(-c2c(-c3ccc(C(=O)N(c4ncccc4C)[C@@H]4CCCNC4)cc3)cnn2C)n1 (single isomer, unassigned) [Example 35]", "TESTED ON": "human PCSK9", "PROPERTY MEASURED": "IC50", "ASSAY RESULT": 6.2}
{"COMPOUND": "CCOC(=O)OC(n1nnc(-c2c(-c3ccc(C(=O)N(c4ncccc4C)[C@@H]4CCCNC4)cc3)cnn2C)n1)C(C)(C)C (single isomer, unassigned) [Example 37]", "TESTED ON": "human PCSK9", "PROPERTY MEASURED": "IC50", "ASSAY RESULT": 22.9}

Where these numbers come from: patent US9227956B2
